Assay: anti-His antibody binders, primary screen, artefact control for SMM control protein annotation, biochemical, small-molecule microarray, 635 nm fluorescence (AID 1128);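 further: score merges feature fluorescence with signal-to-noise for each printed compound spot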
Settings: anti-His Alexa647 antibody binding, higher = more signal
assay.metric: composite z-score

Q: Which measured composite z-score value corresponds to `CC(CCN1CCCc2nc(C)c(C)cc21)=NOC[C@@H](C)[C@H](OCc1ccccc1)C(C)C` ?
A: 2.52

Q: Please give the measured composite z-score for this molecule: `CO[C@@H]1COC(=O)[C@H](COCc2ccccc2)NC(=O)CC=C[C@@H](C)[C@H](OC)COC(=O)[C@@H](C)NC(=O)CC=C[C@H]1C`
A: -1.39

Q: Fill in: composite z-score of `CC(CCC(=O)OC[C@H]1O[C@H](C#Cc2ccccc2)C=C[C@@H]1Oc1ccc(C)cc1)=NO[C@H](C)c1cn([C@@H]2COC[C@H]2O)nn1` is ___
A: 0.254

Q: Param item = `COC(=O)[C@@H]1CC[C@H](C)[C@@H](c2ccc(C)cc2)N1C(=O)c1ccc(C=NOC[C@H]2O[C@H](c3ccccc3)C=C[C@@H]2Oc2ccc(OC)cc2)cc1` ; retrieve measured composite z-score.
A: -0.585

Q: Given Cc1cc2c(nc1C)CCCCN2CC(O)CN1CCCc2nc(-c3ccc(Br)cc3)ccc21 (configuration not stated) , state its recorded composite z-score.
A: 0.819

Q: For `CCOC(=O)CCN1C(=O)[C@H]2[C@@H]3C(=CC[C@H]2C1=O)C(=O)[C@H]1O[C@H]1[C@H]3O` , what is its reported composite z-score?
A: -0.705

Q: I would be grateful if you could share the reported composite z-score for `C#CCCCON=C1C[C@@H](O)[C@@H](O)[C@@H]2[C@@H]3C(=O)N(C[C@@H]4CCCO4)C(=O)[C@@H]3CC[C@H]12` .
A: 0.185
